Reference source: PubChem BioAssay

Assay: reduction of polyQ htt aggregates in cells – imaging, exon1htt(103Q)mCFP cells, high-content imaging, primary screen (AID 483);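 note: compound exposure lasted 3 days before fixation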;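 for nuclei count: percent of the per-plate median nuclei count of sample wells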
Conditions: exon1htt(103Q)mCFP cell line, aggregate imaging, at 2 µM; measured here: cell count, toxicity
ASSAY METRIC: nuclei count
Just so you know, I need the unit written after the number.

INSERT INTO results (molecule, result) VALUES
  ('CC(C)NC(=O)CSc1nc2ccccc2n1-c1ccccc1', '84.5%'),
  ('COc1ccc(OCc2nc(C#N)c(N3CCN(c4ccc(OC)cc4)CC3)o2)cc1', '73.6%'),
  ('CCOc1ccc(NC(=O)c2ccccc2O)cc1', '71.8%'),
  ('O=C(Nc1cccc(F)c1)C1C2C=CC3(CN(CCCN4CCOCC4)C(=O)C13)O2 (stereo unspecified)', '118%'),
  ('COc1ccccc1Nc1nc2ccccc2[nH]1', '94.6%'),
  ('O=S(=O)(Nc1ncccn1)c1ccc(Nc2ncnc3ccccc23)cc1', '89.3%'),
  ('CC(=O)NCC(=O)N(Cc1ccco1)C1(C(=O)NC2CCCCC2)CCCCC1', '132%'),
  ('C(=C\c1ccccc1)/CSc1nnc(-c2ccccn2)n1Cc1ccco1', '24%');

*Q* For the molecule CN(Cc1nc(-c2ccncc2)no1)S(=O)(=O)c1ccc(Cl)cc1 , what nuclei count is on record?
*A* 88.3%

*Q* And the next one, O=C(O)CCC(=O)c1c[nH]c2ccccc12 ?
*A* 103%

*Q* And the next one, O=C(CSCc1ccccn1)Nc1ccccc1 ?
*A* 95.1%

====

The following molecules are shown together with reported inhibition of aggregation values.
Assay: reduction of polyQ htt aggregates in cells – imaging, exon1htt(103Q)mCFP cells, high-content imaging, primary screen (AID 483);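 note: compound exposure lasted 3 days before fixation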
Conditions: exon1htt(103Q)mCFP cell line, aggregate imaging, at 2 µM; stronger effect = higher value
Form entry: value (%) — number only.

# annotated cases, reported inhibition of aggregation shown
INSERT INTO assay_data (molecule, unit_name, numeric_readout) VALUES
  ('COc1ccc2cc(CN(CCO)C(=O)c3ccccc3F)c(=O)[nH]c2c1', '%', -16),
  ('COc1ccc(NC(=O)CN2CCCCC2)cc1', '%', 5.5),
  ('C/C(N)=C(/C#N)C(=O)CSc1nnc(Nc2cccc(C)c2)s1', '%', 5.1);

*Q* For the molecule CCCCC(CC)CNC(=O)C1CCCN(S(=O)(=O)c2cnc[nH]2)C1 (stereo unspecified) , what inhibition of aggregation is on record?
*A* 2.1

*Q* And the next one, CN(c1ccccc1C(N)=O)S(=O)(=O)c1ccccc1 ?
*A* -21.8

*Q* And the next one, Cc1cccc(N2CCN(C(=O)CCn3c(=S)[nH]c4cc5c(cc4c3=O)OCO5)CC2C)c1 (stereo unspecified) ?
*A* -4.6

====

Target: Voltage-gated potassium channel subunit beta-2 (Rattus norvegicus) (UniProt P62483)
Sequence (P62483 whole entry, looked up): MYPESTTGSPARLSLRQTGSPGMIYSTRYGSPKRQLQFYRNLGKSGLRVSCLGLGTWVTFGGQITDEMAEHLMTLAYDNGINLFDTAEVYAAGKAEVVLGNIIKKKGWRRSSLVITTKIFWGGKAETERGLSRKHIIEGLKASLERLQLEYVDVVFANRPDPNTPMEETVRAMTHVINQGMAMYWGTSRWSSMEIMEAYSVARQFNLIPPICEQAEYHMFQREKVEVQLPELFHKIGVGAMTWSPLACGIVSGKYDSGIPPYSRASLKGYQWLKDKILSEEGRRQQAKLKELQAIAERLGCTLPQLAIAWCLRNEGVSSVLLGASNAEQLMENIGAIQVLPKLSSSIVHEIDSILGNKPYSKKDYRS
Test: inhibitors of rat Kvbeta2 reductase activity – biochemical, NADPH fluorescence, primary screen (AID 622);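 note: slope of raw intensity against log time taken from 70 to 1610 s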
Conditions: recombinant KvBeta, 4-cyanobenzaldehyde reduction, at 10 µM
Active and inactive are the calls of the source.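 The calls were made as follows: active = fluorescence slope higher than the sample average by over 3 SD (cut at about -0.22 in these data, passing the limit was not always enough); inactive = the rest.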
Returns: one label drawn from TRUE (active), FALSE (inactive)

These solved cases illustrate the format of a correct answer.
INSERT INTO assay_data (molecule, assigned_class) VALUES
  ('CCOC(=O)C1CCN(C(=O)COc2ccc(S(=O)(=O)NC(C)C)cc2Cl)CC1', 'FALSE'),
  ('O=C(c1ccc2nc(N3CCCCC3)sc2c1)N1CCN(c2ccccn2)CC1', 'FALSE'),
  ('CCOC(=O)C1CCN(Cc2c(O)ccc3ccccc23)CC1', 'FALSE'),
  ('CC1(C)CC(=O)C2=C(C1)NC(=O)CC2C(=O)NCc1ccc(F)cc1 (stereo not given)', 'FALSE'),
  ('CCOC(=O)c1cc2cc(F)ccc2nc1C', 'FALSE'),
  ('C=C(C)COc1ccc(-c2n[nH]c(C)c2-c2ccccc2)c(O)c1', 'FALSE');

*Q* Which outcome did this test record for the molecule CN(C)c1ccc(NC(=O)c2ccncc2)c2ccccc12 ?
*A* FALSE

*Q* And the next one, Cc1cc(C(=O)Nc2ccccc2C#N)n(-c2ccccc2)n1 ?
*A* FALSE

*Q* And the next one, O=S(=O)(c1cccc2nsnc12)N1CCN(c2ncccn2)CC1 ?
*A* FALSE

*Q* And the next one, Cc1cc(C)c2[nH]c(=O)c(C(c3nnnn3Cc3ccc4c(c3)OCO4)N3CCC(C)CC3)cc2c1 (stereo not given) ?
*A* FALSE

*Q* And the next one, Cc1ccc(C(=O)CC2(O)C(=O)N(CN3CCOCC3)c3ccccc32)cc1 (stereo not given) ?
*A* FALSE

*Q* And the next one, COc1cccc(-n2nc(C(=O)Nc3ccc4c(c3)OCO4)c3ccccc3c2=O)c1 ?
*A* FALSE

*Q* And the next one, Cc1nn(Cc2ccc(C(=O)NC3CCCCC3)o2)c(C)c1Br ?
*A* FALSE

====

Test: endothelial E-selectin expression blockers – imaging, HUVEC, immunofluorescence, MLSMR starter and 10KST1 sets, primary screen (AID 487);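 note: 100% = median nuclei count of all wells on the same plate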
Settings: HUVEC TNFalpha-induced E-selectin immunofluorescence imaging, at 2 µM; measured here: cell number, toxicity
The following compounds are shown together with reported nuclei count values.
Form entry: value (%) — number only.

# annotated cases, reported nuclei count shown
INSERT INTO results (compound, numeric_readout) VALUES
  ('COc1cc2c(cc1OC)C(c1cccnc1)CC(=O)N2 (stereo not given)', 117),
  ('Cc1ccc(S(=O)(=O)C2(C(=O)Nc3nccs3)CC2)cc1', 103),
  ('CCN(CC)C(=O)C1CCCN(c2ncnc3c2cnn3-c2ccc(Cl)cc2)C1 (stereo not given)', 109),
  ('Cc1ccc(C)c(-n2c(CNC(=O)c3ccco3)nnc2SCC(=O)Nc2nnc(C)s2)c1', 120),
  ('CC1=C(C(=O)OCc2ccccc2)C(c2ccco2)n2ncnc2N1 (stereo not given)', 109);

*Q* For the compound CCc1nn2c(=O)cc(CSc3nc4sc5c(c4c(=O)n3C)CCCC5)nc2s1 , what nuclei count is on record?
*A* 65.2

*Q* And the next one, Cc1cccc(NC(=O)c2cc(NC(=O)c3ccco3)ccc2N2CCCCC2)c1 ?
*A* 107

*Q* And the next one, C=CCNC(=O)c1cc(-c2ccccc2O)on1 ?
*A* 113

*Q* And the next one, Cc1cc(=O)[nH]c(SCc2nc3ncccn3c2Br)n1 ?
*A* 107

*Q* And the next one, CN=C(Nc1ccc2c(c1)OCO2)SC1CC(=O)N(c2ccccc2)C1=O (stereo not given) ?
*A* 112

====

Experiment: blockers of RIG-like receptor reporter activation – cell-based, Sendai virus stimulus, luciferase, 10K MLSCN set, TLR/RLR signaling modifier project, primary screen (AID 602276);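 note: firefly luciferase from ISG56 promoter only with Renilla not read in this screen; 0% = Sendai virus plus DMSO and 100% = medium plus DMSO without virus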
Settings: HEK293 RL24 IRF3 luciferase reporter, at 10 µM, stronger effect = higher value
ASSAY METRIC: inhibition (%)
Form entry: value (%) — number only.

# annotated cases, reported inhibition shown
INSERT INTO assay_data (compound, assay_metric, numeric_readout) VALUES
  ('COc1cc2c(cc1NC(=O)CN1CCN(S(=O)(=O)c3ccc(F)cc3)CC1)oc1ccccc12', 'inhibition', 2.2),
  ('CCOC(=O)Nc1nnc(-c2ccccc2OC)s1', 'inhibition', -20.9),
  ('COCCn1c(SCC(=O)Nc2ccc3c(c2)OCCO3)nc2c(c1=O)SC(C)C2 (stereo unspecified)', 'inhibition', -10.2),
  ('Cc1nc2ccc(N3C(=O)CCC3=O)cc2[nH]1', 'inhibition', 6.8);

*Q* For the compound CCN1CCN(Cc2nc3c(c(=O)n(C)c(=O)n3C)n2CC(=O)c2ccccc2)CC1 , what inhibition is on record?
*A* 6.82

*Q* And the next one, O=C(Nc1nnc(N2CCCCCC2)s1)c1cc(-c2ccc(Br)cc2)on1 ?
*A* 5.43

====

Biological target: Voltage-gated potassium channel subunit beta-2 (Rattus norvegicus)
Test: inhibitors of rat Kvbeta2 reductase activity – biochemical, NADPH fluorescence, primary screen (AID 622);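 note: slope of raw intensity against log time taken from 70 to 1610 s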
Conditions: recombinant KvBeta, 4-cyanobenzaldehyde reduction, at 10 µM, stronger effect = higher value
The following molecules are shown together with reported fluorescence slope values.
No unit in the answer, only the number.

# annotated cases, reported fluorescence slope shown
INSERT INTO assay_data (molecule, assay_metric, numeric_readout) VALUES
  ('NC(=O)C1CCN(C(=S)c2cccs2)CC1', 'fluorescence slope', -0.49),
  ('Cn1cccc1Cc1nnc(SCC(=O)NCC2CCCO2)n1-c1ccc(F)cc1 (configuration not stated)', 'fluorescence slope', -0.537);

*Q* For the molecule O=C(Nc1ccc(NC(=O)c2ccco2)nc1)c1cccnc1 , what fluorescence slope is on record?
*A* -0.472

*Q* And the next one, O=C(Nc1ccc(OC(=O)c2ccco2)cc1)c1ccco1 ?
*A* -0.442

*Q* And the next one, CCOC(=O)C1CCN(C(c2cc3cc(C)cc(C)c3[nH]c2=O)c2nnnn2C2CCCCC2)CC1 (configuration not stated) ?
*A* -0.625

*Q* And the next one, CCc1ccccc1OCCCCN1CCCC1 ?
*A* -0.518

*Q* And the next one, CC(=O)n1cc(-c2ccncc2)c2ccccc21 ?
*A* -0.57
